Entries and their Normalized DMPK Remaining
System: DMPK
assayProcedure: DMPK knockdown by transfected antisense oligonucleotides in DM1 C15 myotubes at 0.5 nM and 50 nM
Format: cell-based
testSettings: 50 nM oligonucleotide, 72 hours, qPCR, relative to vehicle control = 1.00
measuredMetric: Normalized DMPK Remaining

- 343 (CGUAGUUGACUGGCGAAGUU; chemistry not given here) [compound 343]: 0.38
- 249 (AAACUUGCUCAGCAGUGUCA; chemistry not given here) [compound 249]: 0.49
- 376 (GGCUCCUGGGCGGCGCCAGA; chemistry not given here) [compound 376]: 0.04
- 274 (UGCCCAUCCACGUCAGGGCC; chemistry not given here) [compound 274]: 0.67
- 337 (GUUUGCCCAUCCACGUCAGG; chemistry not given here) [compound 337]: 0.46
- 252 (UCUCGGCCGGAAUCCGCUCC; chemistry not given here) [compound 252]: 0.33
- 299 (GCAGGAUGUUGUCGGGUUUG; chemistry not given here) [compound 299]: 0.22
- 347 (GCUCAGCAGUGUCAGCAGGU; chemistry not given here) [compound 347]: 0.27
- 286 (GCUUCAUCUUCACUACCGCU; chemistry not given here) [compound 286]: 0.48
- 374 (CCGCUCCCCAAACUUGCUCA; chemistry not given here) [compound 374]: 0.43
- 361 (GCCAUGACAAUCUCCGCCAG; chemistry not given here) [compound 361]: 0.19
- 311 (CUCAGCCUCUGCCGCAGGGA; chemistry not given here) [compound 311]: 0.20
- 291 (AUACUCCAUGACCAGGUACA; chemistry not given here) [compound 291]: 0.43
- 267 (CUUGUUCAUGAUCUUCAUGG; chemistry not given here) [compound 267]: 0.51
- 372 (UGGCCAUGACAAUCUCCGCC; chemistry not given here) [compound 372]: 0.27
- 315 (GCUCCUGGGCGGCGCCAGAC; chemistry not given here) [compound 315]: 0.21
- 363 (CAUGACCAGGUACAGGUAGU; chemistry not given here) [compound 363]: 0.41
- 329 (UACACCUGGCCCGUCUGCUU; chemistry not given here) [compound 329]: 0.43
- 356 (CUGCCUGCAGCAACUCCAUC; chemistry not given here) [compound 356]: 0.53
- 294 (CGUUCCAUCUGCCCGCAGCU; chemistry not given here) [compound 294]: 0.31
- 287 (GCCAUCUCGGCCGGAAUCCG; chemistry not given here) [compound 287]: 0.14
- 321 (GCUCCCUCUGCCUGCAGCAA; chemistry not given here) [compound 321]: 0.30
- 350 (ACUUGCUCAGCAGUGUCAGC; chemistry not given here) [compound 350]: 0.39
- 273 (CUGUGCACGUAGCCAAGCCG; chemistry not given here) [compound 273]: 0.30
- 313 (GGACGAUCUUGCCAUAGGUC; chemistry not given here) [compound 313]: 0.51
- 333 (AUGGCAUACACCUGGCCCGU; chemistry not given here) [compound 333]: 0.50
- 262 (UGUCGGGUUUGAUGUCCCUG; chemistry not given here) [compound 262]: 0.32
- 246 (GGACGGCCCGGCUUGCUGCC; chemistry not given here) [compound 246]: 0.31
